# Test system: Aβ-40
# test description: MSD Human (6E10) Ab 3-PLEX elisa, conditioned media of 2B7 cells: Aβ-40
# Assay type: cell-based
# experimental parameters: Homo sapiens, Aβ-40 (superscript b); read-out: 50% reduction value
pIC50: −log10 of the molar value.
metric: pIC50

>>> result("COC(=O)N(C)CC1C[C@@H](C)[C@H]2C(O1)[C@H](O)[C@@]1(C)C3CC[C@H]4C(C)(C)[C@@H](O)CC[C@@]45C[C@@]35CC[C@]21C (some centres unmarked)")
"< 5.00"
>>> result("CC(C)[C@@H](OC(=O)N1CCC1)C1C[C@@H](C)[C@H]2C(O1)[C@H](O)[C@@]1(C)C3CC[C@H]4C(C)(C)C(OC(=O)N5CC6(COC6)C5)CC[C@@]45C[C@@]35CC[C@]21C (some centres unmarked)")
"< 5.00"
>>> result("CC(C)CO[C@@H](C1C[C@@H](C)[C@H]2C(O1)[C@H](O)[C@@]1(C)C3CC[C@H]4C(C)(C)C(O[C@H]5CN(C6COC6)CCO5)CC[C@@]45C[C@@]35CC[C@]21C)C(C)(C)O (some centres unmarked)")
"5.00 to 6.00"
>>> result("CCO[C@@H](C1C[C@@H](C)[C@H]2C(O1)[C@H](O)[C@@]1(C)C3CC[C@H]4C(C)(C)C(OC(=O)N5CC[C@H](C(=O)O)C5)CC[C@@]45C[C@@]35CC[C@]21C)C(C)(C)O (some centres unmarked)")
"< 5.00"
>>> result("CO[C@H](C(C)C)C1C[C@@H](C)[C@H]2C(O1)[C@H](O)[C@@]1(C)C3CC[C@H]4C(C)(C)[C@@H](O[C@H]5CNCCO5)CC[C@@]45C[C@@]35CC[C@]21C (some centres unmarked)")
"5.00 to 6.00"

====

# System: Aβ-38
# test description: MSD Human (6E10) Ab 3-PLEX elisa, conditioned media of 2B7 cells: Aβ-38
# Type: cell-based
# experimental parameters: Homo sapiens; Aβ-38 (superscript a); read-out: 50% reduction value
# Procedure: Assays were conducted to determine the ability of a Compound of Formula I to modulate […], and Aβ-38. Plates with capture antibodies were blocked for 1-2 hours at room temperature with 150 μL of the manufactures blocking reagent. […] Final Wash and Readout: • Wash wells 5× with MSD wash buffer • Added 150 μL 2×MSD read buffer • Read with MSD imager. A-Beta peptide levels for each peptide are calculated from the standard curve using the MSD software provided with the MSD 2400 Imager. […]
pIC50: −log10 of the molar value.
# key: entry, value: pIC50
metric: pIC50

>>> result("CO[C@@H](C1C[C@@H](C)[C@H]2C(O1)[C@H](O)[C@@]1(C)C3CC[C@H]4C(C)(C)C(OC(=O)NC5CN(C)C5)CC[C@@]45C[C@@]35CC[C@]21C)C(C)(C)O (stereo partly drawn)")
"> 6.00"
>>> result("CCO[C@@H](C1C[C@@H](C)[C@H]2C(O1)[C@H](O)[C@@]1(C)C3CC[C@H]4C(C)(C)C(OC(=O)N5CC[C@H](C(=O)O)C5)CC[C@@]45C[C@@]35CC[C@]21C)C(C)(C)O (stereo partly drawn)")
"5.00 to 6.00"
>>> result("CC(C)CC(=O)N1CCOC(OC2CC[C@]34C[C@]35CC[C@]3(C)[C@@H]6C(OC([C@H](OC(=O)N7CCC7)C(C)C)C[C@H]6C)[C@H](O)[C@@]3(C)C5CC[C@H]4C2(C)C)C1 (stereo partly drawn)")
"5.00 to 6.00"

====

# Tested on: amyloid-beta (1-42) peptide
# test description: ELISA assay of amyloid-beta (1-42) in conditioned media of 2B7 cells
# Format: cell-based
# experimental parameters: 5 h, Aβ-42, 2B7 cells, 5 hours; read-out: IC50 range
pIC50: −log10 of the molar value.
Listed next: entries and their corresponding pIC50.
metric: pIC50

>>> result("CC(=O)O[C@@H]([C@H]1C[C@@H](C)C2C(O1)C(N)[C@@]1(C)[C@@H]3CC[C@H]4C(C)(C)[C@@H](O[C@@H]5OC[C@@H](O)[C@H](O)[C@H]5O)CC[C@@]45C[C@@]35CC[C@]21C)C(C)(C)O (some centres unmarked)")
"5.00 to 6.00"
>>> result("CC(=O)OC(C)(C)[C@@H](O)[C@H]1C[C@@H](C)C2C(O1)[C@H](O)[C@@]1(C)[C@@H]3CC[C@H]4C(C)(C)[C@@H](O[C@@H]5OC[C@@H](O)[C@H](O)[C@H]5O)CC[C@@]45C[C@@]35CC[C@]21C (some centres unmarked)")
"5.00 to 6.00"

====

# Tested on: amyloid-beta (1-42) peptide
# test description: ELISA assay of amyloid-beta (1-42) in conditioned media of 2B7 cells
# Assay type: cell-based
# experimental parameters: 5 h, Aβ-42, 2B7 cells, 5 hours; read-out: IC50 range
metric: IC50

>>> result("CC(=O)O[C@@H]([C@H]1C[C@@H](C)C2C(O1)[C@H](O)[C@@]1(C)[C@@H]3CC[C@H]4C(C)(C)[C@@H](O)CC[C@@]45C[C@@]35CC[C@]21C)C(C)(C)O (some centres unmarked) [drawing 897]")
"≤ 1 µM"
>>> result("CC(=O)O[C@@H]([C@H]1C[C@@H](C)C2C(O1)[C@H](O)[C@@]1(C)[C@@H]3CC[C@H]4C(C)(C)[C@@H](OC(=O)CN(C)C)CC[C@@]45C[C@@]35CC[C@]21C)C(C)(C)O (some centres unmarked)")
"≤ 1 µM"
>>> result("C[C@@H]1C[C@H]([C@H](OC(N)=O)C(C)(C)O)OC2C1[C@@]1(C)CC[C@@]34C[C@@]35CC[C@H](O[C@@H]3OC[C@@H](O)[C@H](O)[C@H]3O)C(C)(C)[C@@H]5CC[C@H]4[C@]1(C)[C@H]2O (some centres unmarked)")
"1 to 10 µM"
>>> result("CC(=O)O[C@@H]([C@H]1C[C@@H](C)C2C(O1)[C@H](O)[C@@]1(C)[C@@H]3CC[C@H]4C(C)(C)[C@@H](OC5CN(CC(=O)N(C)C)CCO5)CC[C@@]45C[C@@]35CC[C@]21C)C(C)(C)O (some centres unmarked) [drawing 947]")
"≤ 1 µM"
>>> result("CC(=O)O[C@@H]([C@H]1C[C@@H](C)C2C(O1)[C@H](O)[C@@]1(C)[C@@H]3CC[C@H]4C(C)(C)[C@@H](OC(=O)CCC(=O)O)CC[C@@]45C[C@@]35CC[C@]21C)C(C)(C)O (some centres unmarked)")
"1 to 10 µM"

====

# System: amyloid-beta (1-42) peptide
# test description: ELISA assay of amyloid-beta (1-42) in conditioned media of 2B7 cells
# Type: cell-based
# experimental parameters: 5 h, Aβ-42, 2B7 cells, 5 hours; read-out: IC50 range
metric: IC50

>>> result("CC(=O)OC(C)(C)[C@@H](O)[C@H]1C[C@@H](C)C2=C(O1)[C@H](O)[C@@]1(C)[C@@H]3CC[C@H]4C(C)(C)[C@@H](OC5OC[C@@H](O)[C@H](O)[C@H]5O)CC[C@@]45C[C@@]35CC[C@]21C (some centres unmarked)")
"1000 to 10000 nM"
>>> result("C[C@@H]1C[C@H]([C@@H]2OC(=O)OC2(C)C)OC2=C1[C@@]1(C)CC[C@@]34C[C@@]35CC[C@H](O[C@@H]3OC[C@@H](O)[C@H](O)[C@H]3O)C(C)(C)[C@@H]5CC[C@H]4[C@]1(C)[C@H]2O")
"1000 to 10000 nM"
>>> result("CC(=O)O[C@@H]([C@H]1C[C@@H](C)[C@H]2[C@H](O1)[C@H](O)[C@@]1(C)[C@@H]3CC[C@H]4C(C)(C)[C@@H](O[C@H]5CN(CC(F)(F)F)CCO5)CC[C@@]45C[C@@]35CC[C@]21C)C(C)(C)O")
"≤ 1000 nM"
>>> result("C[C@@H]1C[C@H]([C@@H]2OCOC2(C)C)OC2C1[C@@]1(C)CC[C@@]34C[C@@]35CC[C@H](O[C@@H]3OC[C@@H](O)[C@H](O)[C@H]3O)C(C)(C)[C@@H]5CC[C@H]4[C@]1(C)[C@H]2O (some centres unmarked)")
"1000 to 10000 nM"
>>> result("CC(=O)O[C@@H]([C@H]1C[C@@H](C)[C@H]2[C@H](O1)[C@H](O)[C@@]1(C)[C@@H]3CC[C@H]4C(C)(C)[C@@H](O[C@H]5CN(S(C)(=O)=O)CCO5)CC[C@@]45C[C@@]35CC[C@]21C)C(C)(C)O")
"≤ 1000 nM"
>>> result("CC(=O)O[C@@H]([C@H]1C[C@@H](C)C2C(O1)C(=O)[C@@]1(C)[C@@H]3CC[C@H]4C(C)(C)[C@@H](O[C@@H]5OC[C@@H](O)[C@H](O)[C@H]5O)CC[C@@]45C[C@@]35CC[C@]21C)C(C)(C)O (some centres unmarked) [drawing 895]")
"> 1000 nM"
>>> result("CC(=O)O[C@@H]([C@H]1C[C@@H](C)C2C(O1)C(=O)[C@@]1(C)[C@@H]3CC[C@H]4C(C)(C)[C@@H](O)CC[C@@]45C[C@@]35CC[C@]21C)C(C)(C)O (some centres unmarked)")
"1000 to 10000 nM"
>>> result("CC(=O)O[C@@H]([C@H]1C[C@@H](C)C2=C(O1)[C@H](O)[C@@]1(C)[C@@H]3CC[C@H]4C(C)(C)[C@@H](O[C@@H]5OC[C@@H](O)[C@H](O)[C@H]5O)CC[C@@]45C[C@@]35CC[C@]21C)C(C)(C)O")
"≤ 1000 nM"
>>> result("C[C@@H]1C[C@H](CO)O[C@H]2C1[C@@]1(C)CC[C@@]34C[C@@]35CC[C@H](O[C@@H]3OC[C@@H](O)[C@H](O)[C@H]3O)C(C)(C)[C@@H]5CC[C@H]4[C@]1(C)[C@H]2O (some centres unmarked)")
"> 10000 nM"
>>> result("CC(=O)O[C@@H]([C@H]1C[C@@H](C)[C@H]2[C@H](O1)[C@H](O)[C@@]1(C)[C@@H]3CC[C@H]4C(C)(C)C(OC(=O)C5CCCO5)CC[C@@]45C[C@@]35CC[C@]21C)C(C)(C)O (some centres unmarked)")
"≤ 1000 nM"
>>> result("CC(C)C(O)[C@H]1C[C@@H](C)[C@H]2[C@H](O1)[C@H](O)[C@@]1(C)[C@@H]3CC[C@H]4C(C)(C)[C@@H](O)CC[C@@]45C[C@@]35CC[C@]21C (some centres unmarked)")
"> 10000 nM"
>>> result("CCCN1CCO[C@@H](O[C@H]2CC[C@]34C[C@]35CC[C@]3(C)[C@@H]6[C@H](O[C@@H]([C@H](OC(C)=O)C(C)(C)O)C[C@H]6C)[C@H](O)[C@@]3(C)[C@@H]5CC[C@H]4C2(C)C)C1")
"1000 to 10000 nM"
>>> result("CC(=O)O[C@@H]([C@H]1C[C@@H](C)[C@H]2[C@H](O1)C(=O)[C@@]1(C)[C@@H]3CC[C@H]4C(C)(C)[C@@H](O[C@H]5CN(CC(N)=O)CCO5)CC[C@@]45C[C@@]35CC[C@]21C)C(C)(C)O [drawing 969]")
"≤ 1000 nM"
>>> result("COCCN[C@H]1CC[C@]23C[C@]24CC[C@]2(C)C5C(O[C@@H]([C@H](OC(C)=O)C(C)(C)O)C[C@H]5C)[C@H](O)[C@@]2(C)[C@@H]4CC[C@H]3C1(C)C (some centres unmarked)")
"1000 to 10000 nM"
>>> result("CC(=O)O[C@@H]([C@H]1C[C@@H](C)[C@H]2[C@H](O1)[C@H](O)[C@@]1(C)[C@@H]3CC[C@H]4C(C)(C)[C@@H](OS(C)(=O)=O)CC[C@@]45C[C@@]35CC[C@]21C)C(C)(C)O")
"> 10000 nM"
>>> result("CC(=O)O[C@@H]([C@H]1C[C@@H](C)[C@H]2[C@H](O1)[C@H](O)[C@@]1(C)[C@@H]3CC[C@H]4C(C)(C)[C@@H](O[C@H]5CN(CCN6CCCC6)CCO5)CC[C@@]45C[C@@]35CC[C@]21C)C(C)(C)O")
"≤ 1000 nM"
>>> result("CC(=O)O[C@@H]([C@H]1C[C@@H](C)C2C(O1)[C@H](O)[C@@]1(C)[C@@H]3CC[C@H]4C(C)(C)[C@@H](OC(=O)c5cccnc5)CC[C@@]45C[C@@]35CC[C@]21C)C(C)(C)O (some centres unmarked) [drawing 951]")
"≤ 1000 nM"
